assay: in vivo; parameters: species or system SD rats; conditions: male, SD, rat, plasma, po, 1 mg/kg; read-out: Bioavailability F
measuredProperty: bioavailability (%)
Number only, in %; omit the unit.

[ask] Respond only with bioavailability recorded for C[C@H](NC1=CC(=O)C2(CCCC2)C(=O)N1)c1cc(F)ccc1F [Compound of formula (I)]
[reply] 123
